Source: patent US20210403582A1

target_entity: T1, human LIF protein (human, UniProt P15018 23-202)
T1 construct: Bought recombinant protein (Sino Biological / Yiqiao Shenzhou 14890-HNAH) in most assays; also called recombinant human LIF protein; rhLIF
protocol: ELISA, antigen coated 0.5 ug/ml, 293S supernatant heated 70 C 5 min, antibody 0.2 ug/mL
Description: Each well was coated with 100 μL of 0.5 μg/ml antigen and incubate overnight at 4° C., and the plates were washed three times with 300 μL of Wash Buffer. The plates were closed with 200 μL of Closure Buffer (2% bovine serum albumin) for 60 min at room temperature. The plates were washed three times with 300 μL of Wash Buffer. […] The OD 450 value was read by an enzyme marker. […]
assay_readout: ELISA signal
Answer with the value's number alone.

INSERT INTO measurements (binder, assay_readout, endpoint_result) VALUES
  ('H3L3 (antibody, human IgG1, kappa, N297A, V domains shown, Humanized, human IgG1 / kappa) VH: EVMLVESGGGLVQPGGSLRLSCAASGFIFSSYAMSWVRQAPETRLEWVATISSGGSNTYSPDTVKGRFTISRDNSKNTLYLQMNSLRAEDTAMYYCARYYGYYFDFWGQGTLLTVSS VL: DIHMTQSPSSLSASVGDRVTITCRASENIYSYLAWYQQKPGKSPQLLVYNAKTLAEGVPSRFSGSGSGTQFTLTISSLQPEDFATYYCQHHYVTPLTFGQGTKLEIKR', 'ELISA signal', 8900),
  ('H2L3 (antibody, human IgG1, kappa, V domains shown, Humanized, human IgG1 / kappa) VH: EVMLVESGGGLVQPGGSLRLSCAASGFIFSSYAMSWVRQAPGTGLEWVATISSGGSNTYSPDTVKGRFTISRDNSKNTLYLQMNSLRAEDTAMYYCARYYGYYFDFWGQGTLLTVSS VL: DIHMTQSPSSLSASVGDRVTITCRASENIYSYLAWYQQKPGKSPQLLVYNAKTLAEGVPSRFSGSGSGTQFTLTISSLQPEDFATYYCQHHYVTPLTFGQGTKLEIKR', 'ELISA signal', 9150),
  ('38E HuH2L4 (antibody, human IgG1, kappa, V domains shown, Humanized, human IgG1 / kappa) VH: EVMLVESGGGLVQPGGSLRLSCAASGFIFSSYAMSWVRQAPGTGLEWVATISSGGSNTYSPDTVKGRFTISRDNSKNTLYLQMNSLRAEDTAMYYCARYYGYYFDFWGQGTLLTVSS VL: DIHMTQSPSSLSASVGDRVTITCRASENIYSYLAWYQQKQGKSPQLLVYNAKTLAEGVPSRFSGSGSGTQFTLKINSLQPEDFATYYCQHHYVTPLTFGQGTKLEIKR', 'ELISA signal', 9230);

Which ELISA signal value belongs to 38E HuH1L4 (antibody, human IgG1, kappa, N297A, V domains shown, Humanized, human IgG1 / kappa) VH: EVMLLESGGGLVQPGGSLRLSCAASGFIFSSYAMSWVRQAPGTGLEWVATISSGGSNTYSPDTVKGRFTISRDNSKNTLYLQMNSLRAEDTAVYYCARYYGYYFDFWGQGTLLTVSS VL: DIHMTQSPSSLSASVGDRVTITCRASENIYSYLAWYQQKQGKSPQLLVYNAKTLAEGVPSRFSGSGSGTQFTLKINSLQPEDFATYYCQHHYVTPLTFGQGTKLEIKR ? 9700

Entry under review: H1L3 (antibody, human IgG1, kappa, N297A, V domains shown, Humanized, human IgG1 / kappa) VH: EVMLLESGGGLVQPGGSLRLSCAASGFIFSSYAMSWVRQAPGTGLEWVATISSGGSNTYSPDTVKGRFTISRDNSKNTLYLQMNSLRAEDTAVYYCARYYGYYFDFWGQGTLLTVSS VL: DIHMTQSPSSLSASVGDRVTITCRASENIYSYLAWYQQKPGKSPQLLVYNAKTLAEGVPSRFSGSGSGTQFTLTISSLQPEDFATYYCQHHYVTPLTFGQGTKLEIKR . Reported ELISA signal? 8750
